# Tested on: T1, human CD8 on human pan T cells (CD4-negative population) (human, UniProt P01732 22-235; P10966 22-210)
# T1 construct: whole, on cells; Target is CD8 as it stands on primary human pan T cells
# T1 sequence (P01732 22-235, chain 1 of 2): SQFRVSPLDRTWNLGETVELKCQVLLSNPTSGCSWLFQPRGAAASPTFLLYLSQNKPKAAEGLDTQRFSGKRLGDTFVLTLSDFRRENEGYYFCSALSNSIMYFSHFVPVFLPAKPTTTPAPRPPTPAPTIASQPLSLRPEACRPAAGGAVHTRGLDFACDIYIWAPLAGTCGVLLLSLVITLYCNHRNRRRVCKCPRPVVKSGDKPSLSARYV
# T1 sequence (P10966 22-210, chain 2 of 2): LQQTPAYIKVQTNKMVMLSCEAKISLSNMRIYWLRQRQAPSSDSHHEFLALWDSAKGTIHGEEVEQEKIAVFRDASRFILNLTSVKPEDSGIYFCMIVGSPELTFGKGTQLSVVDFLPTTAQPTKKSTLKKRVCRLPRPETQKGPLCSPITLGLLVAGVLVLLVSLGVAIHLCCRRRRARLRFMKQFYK
# Assay: flow cytometry, 20 nM antibody on human pan T cells, A647 anti-human IgG Fc; geomean ratio in CD4-negative population
Observable: Cell Binding to Human PanT Signal/Background (of CD4 negative population)
Respond with a number, then the unit of measure.

The cases that follow already have their Cell Binding to Human PanT Signal/Background (of CD4 negative population) on record.
CD8B366 (antibody, human IgG1, kappa, V domains shown, Full-length human IgG1, kappa) VH: EVQLQQSGPELVRPGASVKLSCTASGFNIKDDYIHWVKQRPEQGLEWIGRIDPANGNPRYAPKFQDKATLTADTSSNTAYLQLSSLTSEDTAVYYCARDDEGYYYFDVWGAGTSVTVSS VL: DIKMTQSPSYLAASPGETITINCRASKSISKYLAWYQEKPGKTNKVLIYSGSTLQSGIPSRFSGSGSGTDFTLTISSLEPEDFAIYYCQQHNEYPLTFGDGTRLEIKR | 318 signal/background
CD8B248 (antibody, human IgG1, kappa, V domains shown, Full-length human IgG1, kappa) VH: EVQLQQSGAELARPGASVKMSCKASGYTFTTYTMHWVKQRPGQGLEWIGYINPSSGYTKYNQKFTDKATLTADKSSSTAYMQLSSLTSEDSAVYYCARLWAYWGQGTLVTVSA VL: DVVMTQTPLSLPVSLGDQASISCRSSQSLVHSSGNTYLHWYLQKPGQSPKLLIYKGSNRFSGVSDRFSGSGSGTDFTLKISRVEAEDLGVYFCSQSTHVPFTFGSGTKLEMKR | 20 signal/background
CD8B250 (antibody, human IgG1, kappa, V domains shown, Full-length human IgG1, kappa) VH: QVQLKESGPGLVAPSQSLSITCTVSGFSLSNYVVHWVRQSPGKGLEWLGVIWTDGSTDYNAAFISRLSISKDNSKSQVFFKMNSLQADDTAIYYCARNNGYFPAFFAYWGQGTLVTVSA VL: DIVMTQSQKFMSTSVGDRVSVTCKASQNVDTDITWYQQKPGQSPKALIYSASYRYSGVPDRFTGSGSGTDFTLTITNVQSEDLAEYFCQQYNSYPLTFGSGTKLEMKR | 61 signal/background
CD8B311 (antibody, human IgG1, kappa, V domains shown, Full-length human IgG1, kappa) VH: QVQLKESGPELVKPGASVKLSCKASGYTFTSYWMHWVKQRPGQGLEWIGMIHPNSGSTNYNEKFKSKATLTVDKSSSTAYMQLSSLTSEDSAVYYCARCGYDGAWFAYWGQGTSVTVSS VL: DIQMTQTTSSLSASLGDRVTISCSASQGISNCLNWYQQKPDGTVKLLIHYTSSLHSGVPSRFSGGGSGTHYSLTISNLEPEDIATYYCQQYSKVPYTFGSGTKLEIKR | 1 signal/background

Continue with the next binder.
Measured Cell Binding to Human PanT Signal/Background (of CD4 negative population), CD8B324 (antibody, human IgG1, kappa, V domains shown, Full-length human IgG1, kappa) VH: QVQLQQPGADLVKPGASVKLSCKASGYTSTSHWIHWVKQRPGQGLEWIGNIYPGSSSTNYNEKFKRMATLTVDTSSSTVYMVLSSLTSDDSAVYYCARHSPGHRDYAMDYWGLGTSVTVSS VL: DIVMTQSQKFMPTTVGDRVSITCKASQNVGTAVAWYQQKPGQSPKLLIASASNRYTGVPDRFTGSGSGTDFTLTISTMQSEDLADYFCQQYSTYPLTFGAGTKLEMKR : 1610 signal/background

All values here come from patent US20220112288A1.
